Molecular target: T1, His-tagged human HtrA1 protease domain (human, UniProt Q92743 161-367)
T1 construct: His-tagged protease domain; also called huHtrA1-PD-His; huHtrA1-PD
T1 sequence (Q92743 other isoform, or with tags, fused parts or gaps limits assumed): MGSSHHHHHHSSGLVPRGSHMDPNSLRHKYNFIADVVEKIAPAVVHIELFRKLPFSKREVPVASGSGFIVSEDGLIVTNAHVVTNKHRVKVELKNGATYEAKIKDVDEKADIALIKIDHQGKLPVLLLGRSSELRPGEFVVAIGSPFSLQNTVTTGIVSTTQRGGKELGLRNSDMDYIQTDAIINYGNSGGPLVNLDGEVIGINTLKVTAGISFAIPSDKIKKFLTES
Test: BIACORE SPR, Fab analyte, Human HtrA1-PD (N=2)
experimental endpoint: koff (s⁻¹)
The answer is to be given in s⁻¹; state only the numeric part.

Quick one: koff of h15H6.v2 Fab (Fab, V domains shown, Tested as Fab; also called parent; parental Fab) VH: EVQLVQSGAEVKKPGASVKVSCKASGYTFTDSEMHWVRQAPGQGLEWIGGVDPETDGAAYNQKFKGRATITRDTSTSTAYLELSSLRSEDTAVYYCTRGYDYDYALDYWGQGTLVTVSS VL: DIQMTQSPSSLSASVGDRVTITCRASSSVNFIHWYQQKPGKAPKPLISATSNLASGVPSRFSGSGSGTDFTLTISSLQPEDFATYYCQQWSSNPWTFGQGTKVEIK ?
0.00021

Data provenance is patent US20170145113A1.
